We begin with a simple list: items and their reported selectivity ratio.
- assay: in vitro
- condition-info: dog, MDCK cells, TI
- Description: Therapeutic index, ratio of TC50 for MDCK cells to IC50 for antiviral activity against influenza A virus (A/Hanfang/359/95(H3N2))

Previously resolved entries follow.
// lookup selectivity ratio for COC1=CC(=O)c2ccc(=O)oc2[C@]12[C@H](C=C(C)C)C[C@]1(C)CC(C)=C[C@H](c3c(OC)cc(OC)c4ccc(=O)oc34)[C@H]1[C@@H]2c1c(OC)cc(OC)c2ccc(=O)oc12
3.3

Moving on to the next compound: COC1=CC(=O)c2ccc(=O)oc2[C@]12[C@H](c1c(OC)cc(OC)c3ccc(=O)oc13)[C@H]1[C@H](c3c(OC)cc(OC)c4ccc(=O)oc34)C=C(C)C[C@]1(C)C[C@@H]2C=C(C)C
7.9

Turning now to a further compound:
// lookup selectivity ratio for CCOC(=O)C1=C[C@@H](OC(CC)CC)[C@H](NC(C)=O)[C@@H](N)C1
910

====

We begin with a simple list: items and their reported pIC50.
- Test system: Influenza A virus
- assay: microbe, parasite or virus in culture
- condition-info: H3N2, MDCK
- Description: Antiviral activity against influenza A virus (A/Hanfang/359/95(H3N2)) infected in MDCK cells
In plain terms, pIC50 is the concentration in mol/L turned into minus its base-10 logarithm.

Previously resolved entries follow.
// lookup pIC50 for COC1=CC(=O)c2ccc(=O)oc2[C@]12[C@H](C=C(C)C)C[C@]1(C)CC(C)=C[C@H](c3c(OC)cc(OC)c4ccc(=O)oc34)[C@H]1[C@@H]2c1c(OC)cc(OC)c2ccc(=O)oc12
4.76

Moving on to the next compound: NC(=O)c1ncn([C@@H]2O[C@H](CO)[C@@H](O)[C@H]2O)n1
5.21

Moving on to the next compound: CCOC(=O)C1=C[C@@H](OC(CC)CC)[C@H](NC(C)=O)[C@@H](N)C1
5.47

Turning now to a further compound:
// lookup pIC50 for COC1=CC(=O)c2ccc(=O)oc2C12C(C=C(C)C)CC1(C)CC(C)=CC(c3c(OC)cc(OC)c4ccc(=O)oc34)C1C2c1c(OC)cc(OC)c2ccc(=O)oc12 (racemic; form 1)
5.50

====

- System: NCI-H460
- assay: Antiproliferative activity against human NCI-H460 cells
- Format: functional, cell-based
parameter-measured: pIC50
In plain terms, pIC50 is the concentration in mol/L turned into minus its base-10 logarithm.

// lookup pIC50 for COC(=O)[C@@]1(C2C=CC(=O)C=C2)c2cc(O)cc(O)c2[C@@H](c2ccc(O)cc2)C(=O)c2cc(O)cc(O)c21
4.49

====

- Tested on: Plasmodium falciparum
- assay: Antimalarial activity against Plasmodium falciparum 3D7
- Assay type: functional, organism-based
- condition-info: Plasmodium falciparum, 3D7
parameter-measured: pIC50
In plain terms, pIC50 is the concentration in mol/L turned into minus its base-10 logarithm.

Previously resolved entries follow.
// lookup pIC50 for C#CCCCCCCCCCCCN1C(=O)C(C2(OCC)CCC3(C=CC(=O)C=C3)O2)C12C=CC(=O)C=C2 (stereo in doubt; 30)
5.76

Moving on to the next compound: CCCCCCCCCCCCCC(=O)C1C(=O)N(Cc2ccccc2)C12C=CC(=O)C=C2 (stereo not given)
5.87

Moving on to the next compound: C#CCCCCCCC(=O)C1C(=O)N(Cc2ccccc2)C12C=CC(=O)C=C2 (stereo not given)
5.11

Moving on to the next compound: CCCCCCCCCCCCN1C(=O)C(C2(OC)CCC3(C=CC(=O)C=C3)O2)C12C=CC(=O)C=C2 (stereo in doubt; 28)
5.77

Others:
// lookup pIC50 for CCCCCCCCCCCCC/C(O)=C1\C(=O)N(Cc2ccccc2)CC12C=CC(=O)C=C2
5.64

====

We begin with a simple list: items and their reported selectivity ratio.
- assay: in vitro
- condition-info: dog, MDCK cells, TI
Keep it simple and answer with nothing but the number.

// lookup selectivity ratio for COC1=CC(=O)c2ccc(=O)oc2[C@@]12[C@H](C=C(C)C)C[C@]1(C)CC(C)=C[C@H](c3c(OC)cc(OC)c4ccc(=O)oc34)[C@H]1[C@@H]2c1c(OC)cc(OC)c2ccc(=O)oc12
6.9

Others:
// lookup selectivity ratio for NC(=O)c1ncn([C@@H]2O[C@H](CO)[C@@H](O)[C@H]2O)n1
771

Moving on to the next compound: COC1=CC(=O)c2ccc(=O)oc2[C@@]12[C@H](c1c(OC)cc(OC)c3ccc(=O)oc13)[C@H]1[C@H](c3c(OC)cc(OC)c4ccc(=O)oc34)C=C(C)C[C@]1(C)C[C@@H]2C=C(C)C
1.9

====

- System: Jurkat
- assay: Cytotoxicity against human Jurkat cells
- Format: functional, cell-based
- condition-info: Homo sapiens, Jurkat
We begin with a simple list: items and their reported IC50.

Previously resolved entries follow.
// lookup IC50 for CCCCCCCCCCCCC/C(O)=C1\C(=O)N(Cc2ccccc2)CC12C=CC(=O)C=C2
1.42 µM

Moving on to the next compound: CCCCCCCCCCCCCC(=O)C1C(=O)N(Cc2ccccc2)C12C=CC(=O)C=C2 (centres undefined)
2.88 µM

Others:
// lookup IC50 for C#CCCCCCCC(=O)C1C(=O)N(Cc2ccccc2)C12C=CC(=O)C=C2 (centres undefined)
7.4 µM

Moving on to the next compound: C#CCCCCCCCCCCCN1C(=O)C(C2(OCC)CCC3(C=CC(=O)C=C3)O2)C12C=CC(=O)C=C2 (stereo in doubt; 30)
0.14 µM

====

- assay: Inhibition of yeast pre-mRNA splicing
- Set-up: species or system Saccharomyces cerevisiae
parameter-measured: pIC50
In plain terms, pIC50 is the concentration in mol/L turned into minus its base-10 logarithm.

Previously resolved entries follow.
// lookup pIC50 for CC(=O)NC1=CC2(C=CC1=O)CCC(=O)O2 (stereo not given)
3.10

Moving on to the next compound: O=C1CCC2(C=CC(=O)C(NC(=O)c3ccccc3)=C2)O1 (stereo not given)
3.22

Others:
// lookup pIC50 for Cc1ccc(S(=O)(=O)NC2CC3(C=CC(=O)C(NC(=O)c4ccccc4)=C3)OC2=O)cc1 (stereo not given)
3.15

Moving on to the next compound: COC1=CC2(C=CC1=O)CCC(=O)O2 (stereo not given)
2.52

Moving on to the next compound: CC(=O)NC1=CC2(C=CC1=O)CC(NS(=O)(=O)c1ccc(C)cc1)C(=O)O2 (stereo not given)
2.77

====

- assay: Cytotoxicity against MDCK cells
- Assay type: toxicity, cell-based, Canis lupus familiaris
- condition-info: dog, MDCK cells; read-out: TC50 (the source's name)
parameter-measured: CC50 (µM)
Write it as a number; the unit µM goes unstated.

Previously resolved entries follow.
// lookup CC50 for CCOC(=O)C1=C[C@@H](OC(CC)CC)[C@H](NC(C)=O)[C@@H](N)C1 [OSELTAMIVIR]
3070

Moving on to the next molecule: COC1=CC(=O)c2ccc(=O)oc2[C@]12[C@H](c1c(OC)cc(OC)c3ccc(=O)oc13)[C@H]1[C@H](c3c(OC)cc(OC)c4ccc(=O)oc34)C=C(C)C[C@]1(C)C[C@@H]2C=C(C)C
77.6

Turning now to a further molecule:
// lookup CC50 for COC1=CC(=O)c2ccc(=O)oc2[C@@]12[C@H](C=C(C)C)C[C@]1(C)CC(C)=C[C@H](c3c(OC)cc(OC)c4ccc(=O)oc34)[C@H]1[C@@H]2c1c(OC)cc(OC)c2ccc(=O)oc12
77.6

====

- study-system: Neutrophil elastase (Homo sapiens)
- Sequence (P08246 whole entry): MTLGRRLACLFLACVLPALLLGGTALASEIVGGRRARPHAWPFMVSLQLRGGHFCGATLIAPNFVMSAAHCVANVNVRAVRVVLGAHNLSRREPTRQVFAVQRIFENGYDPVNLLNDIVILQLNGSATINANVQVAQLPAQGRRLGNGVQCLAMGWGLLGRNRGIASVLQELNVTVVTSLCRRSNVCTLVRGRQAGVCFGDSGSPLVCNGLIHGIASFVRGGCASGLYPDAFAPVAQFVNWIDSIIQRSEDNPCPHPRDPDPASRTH
- assay: Inhibition of human neutrophil elastase activity assessed as reduction in elastase release
parameter-measured: IC50
For clarity, give the value followed by its unit.

// lookup IC50 for COc1cc2c(c3c1CCC(c1ccccc1)O3)C1C3C(c4ccc(O)c(C)c4OC)C(C(O)(OC)c4ccccc4)C14C(C=CC(=O)C4OC)OC3(c1ccccc1)O2 (stereo unspecified)
6.53 µM

====

- Test system: KB
- assay: Antiproliferative activity against human KB cells
- Format: functional, cell-based
parameter-measured: IC50 (µM)
Write it as a number; the unit µM goes unstated.

// lookup IC50 for COC(=O)[C@@]1(C2C=CC(=O)C=C2)c2cc(O)cc(O)c2[C@@H](c2ccc(O)cc2)C(=O)c2cc(O)cc(O)c21
33.2

====

We begin with a simple list: items and their reported pIC50.
- System: MCF7
- assay: Antiproliferative activity against human MCF7 cells
- Assay type: functional, cell-based
In plain terms, pIC50 is the concentration in mol/L turned into minus its base-10 logarithm.

// lookup pIC50 for O=C1C=CC2(C=C1)OCC(=O)N2c1nc(-c2cccs2)nn1-c1ccccc1
8.39

Moving on to the next compound: COC(=O)[C@@]1(C2C=CC(=O)C=C2)c2cc(O)cc(O)c2[C@@H](c2ccc(O)cc2)C(=O)c2cc(O)cc(O)c21
4.55

Moving on to the next compound: O=C1C=CC(=C2C(=O)c3cc(O)cc4c3[C@@](c3ccc(O)cc3)(C(=O)O4)c3cc(O)cc(O)c32)C=C1
4.00
